Measured values drawn from PubChem BioAssay (EPA / NIEHS) for this set.

# study-system: human AKT serine/threonine Kinase 2 (AKT2), AKT2 (gene 208)
# run-description: NVS_ENZ_hAKT2: NovaScreen (NVS) Enzymatic Assay for human AKT serine/threonine Kinase 2 (AKT2) (AID 2283141)
Records with an inconclusive call do not appear. The source made the active and inactive calls. Rule for the calls: active = hit-call score of the fitted dose curve at least 0.9, where 1 is the maximum; inconclusive = response in the unintended direction; inactive = score below 0.9.
experimental-endpoint: AC50

Cc1cc(C)nc(NC(=O)NS(=O)(=O)c2ccccc2C(=O)OC2COC2)n1 | inactive
Oc1cc(Cl)ccc1Oc1ccc(Cl)cc1Cl | 41.4 µM (active)
Clc1ccccc1-c1nnc(-c2ccccc2Cl)nn1 | inactive
COC(=O)c1ccccc1S(=O)(=O)NC(=O)N(C)c1nc(C)nc(OC)n1 | inactive

###

# Read-out: succinate dehydrogenase complex iron sulfur subunit B (SDHB), SDHB (gene 6390)
# run-description: LTEA_HepaRG_SDHB: Life Technologies and Expression Analysis (LTEA) Assay for succinate dehydrogenase complex iron sulfur subunit B (SDHB) using HepaRG (AID 2283528)
# experimental-parameters: mRNA level, 48 h; actives raise or lower the signal
Activity calls are given as the source filed them. How the source made its calls: active means hit-call score of the fitted dose curve at least 0.9, where 1 is the maximum; inactive means score below 0.9.
Classes used: active, inactive

CNC(=O)/C=C(\C)OP(=O)(OC)OC | inactive
C[C@H]1[C@H](c2ccc(Cl)cc2)SC(=O)N1C(=O)NC1CCCCC1 | active
CCOC1Oc2ccc(OS(C)(=O)=O)cc2C1(C)C (configuration not stated) | active
O=C(NC(=O)c1c(F)cccc1F)Nc1ccc(OC(F)(F)C(F)OC(F)(F)F)c(Cl)c1 (configuration not stated) | inactive
N#CN | inactive
O=C(O)CCCOc1ccc(Cl)cc1Cl | inactive
CCc1ccc(C(=O)NN(C(=O)c2cc(C)cc(C)c2)C(C)(C)C)cc1 | inactive
O=S1OCC2C(CO1)C1(Cl)C(Cl)=C(Cl)C2(Cl)C1(Cl)Cl (configuration not stated) | inactive
CC(C)OC(=O)Nc1cccc(Cl)c1 | inactive
O=C(O)COc1ccc(Cl)cc1Cl | inactive
COP(=S)(OC)Oc1ccc(SC)c(C)c1 | inactive
CCCN(CCC)c1c([N+](=O)[O-])cc(C(F)(F)F)cc1[N+](=O)[O-] | inactive

###

# run-description: APR_HepG2_MitoticArrest_24hr: Apredica 24-hour HepG2 Assay for Mitotic Arrest (AID 2282910)
# experimental-parameters: high-content imaging, actives raise or lower the signal
The source made the active and inactive calls. How the source made its calls: active means hit-call score of the fitted dose curve at least 0.9, where 1 is the maximum; inactive means score below 0.9.
Classes used: yes for active, no for inactive

O=C(Nc1ccccc1)Nc1cnns1 | no
Cc1[nH]c(=O)n(C(C)(C)C)c(=O)c1Cl | no
CCOc1nc(NC)nc(NC(=O)NS(=O)(=O)c2ccccc2C(=O)OC)n1 | no
COc1nn(CSP(=S)(OC)OC)c(=O)s1 | no
COC(=O)c1ccccc1CS(=O)(=O)NC(=O)Nc1nc(OC)cc(OC)n1 | no
CCC(C)(NC(=O)c1cc(Cl)c(C)c(Cl)c1)C(=O)CCl (stereo not drawn) | yes
COP(=S)(OC)Oc1ccc(SC)c(C)c1 | no
CNC(=O)CSP(=S)(OC)OC | no

###

# study-system: mouse Peroxisome Proliferator-activated Receptor gamma (PPARg), Pparg (gene 19016) (UniProt P37238)
# Sequence (P37238 whole entry, looked up): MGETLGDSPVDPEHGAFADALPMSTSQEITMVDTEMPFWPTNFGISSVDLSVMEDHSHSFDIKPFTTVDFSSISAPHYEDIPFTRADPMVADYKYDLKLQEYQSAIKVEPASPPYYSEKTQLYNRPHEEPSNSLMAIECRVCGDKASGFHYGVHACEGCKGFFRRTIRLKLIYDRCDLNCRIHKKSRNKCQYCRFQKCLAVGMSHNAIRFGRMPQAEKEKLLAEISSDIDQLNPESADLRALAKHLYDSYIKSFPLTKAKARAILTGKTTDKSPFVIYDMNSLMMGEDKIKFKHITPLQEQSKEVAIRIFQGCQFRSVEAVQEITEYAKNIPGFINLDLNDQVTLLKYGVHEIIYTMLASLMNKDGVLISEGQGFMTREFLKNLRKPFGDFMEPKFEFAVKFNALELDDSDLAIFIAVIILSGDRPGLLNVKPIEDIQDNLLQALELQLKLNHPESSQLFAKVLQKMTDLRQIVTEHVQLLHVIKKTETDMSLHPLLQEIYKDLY
# run-description: ATG_mPPARg_XSP1: Attagene TRANS-FACTORIAL Multi-Species (XSP1) HepG2 Assay for mouse Peroxisome Proliferator-activated Receptor gamma (PPARg) (AID 2283802)
Results filed as inconclusive are left out. Activity calls are given as the source filed them. Rule for the calls: active = hit-call score of the fitted dose curve at least 0.9, where 1 is the maximum; inconclusive = response in the unintended direction; inactive = score below 0.9.
Classes used: active, inactive

Oc1cc(Cl)ccc1Oc1ccc(Cl)cc1Cl | active
COP(=S)(OC)Oc1ccc(SC)c(C)c1 | active
CCOCN(C(=O)CCl)c1c(C)cccc1CC | active
O=S1OCC2C(CO1)C1(Cl)C(Cl)=C(Cl)C2(Cl)C1(Cl)Cl (stereo not given) | inactive
CCCN(CCC)c1c([N+](=O)[O-])cc(C(F)(F)F)cc1[N+](=O)[O-] | active
